molecular target: FGFR3 (V555M) (Homo sapiens (Human), UniProt P22607, V555M); assay: Kinase assay, binding constants (Kd), kinase-tagged T7 phage, qPCR; details: V555M mutant
Sequence (P22607 23-806 V555M): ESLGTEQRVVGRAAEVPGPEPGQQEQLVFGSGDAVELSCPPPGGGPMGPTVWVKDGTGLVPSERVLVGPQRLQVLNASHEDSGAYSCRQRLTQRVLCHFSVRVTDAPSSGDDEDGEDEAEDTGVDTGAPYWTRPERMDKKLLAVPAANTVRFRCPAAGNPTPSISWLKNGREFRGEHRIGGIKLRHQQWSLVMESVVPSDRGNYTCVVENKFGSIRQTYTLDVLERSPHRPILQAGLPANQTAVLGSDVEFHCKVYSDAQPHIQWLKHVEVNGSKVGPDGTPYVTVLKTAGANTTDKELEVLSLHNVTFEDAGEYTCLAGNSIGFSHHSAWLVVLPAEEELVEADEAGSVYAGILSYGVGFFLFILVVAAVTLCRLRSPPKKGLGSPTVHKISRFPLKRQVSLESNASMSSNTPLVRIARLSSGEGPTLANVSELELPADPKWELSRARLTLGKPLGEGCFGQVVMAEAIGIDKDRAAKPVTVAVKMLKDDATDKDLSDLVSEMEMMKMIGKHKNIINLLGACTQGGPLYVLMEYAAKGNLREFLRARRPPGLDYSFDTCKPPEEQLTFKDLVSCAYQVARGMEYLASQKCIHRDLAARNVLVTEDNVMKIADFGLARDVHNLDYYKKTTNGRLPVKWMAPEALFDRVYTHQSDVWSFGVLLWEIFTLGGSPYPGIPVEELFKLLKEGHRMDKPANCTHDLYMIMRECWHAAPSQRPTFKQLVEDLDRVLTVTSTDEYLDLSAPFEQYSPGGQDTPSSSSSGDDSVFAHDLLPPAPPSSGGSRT
measure: Kd

Input: Recorded Kd for Cc1ncc(Cl)c([C@@H](C)Oc2ccc3[nH]nc(-c4cnn(C5CCN(C(C)C)CC5)c4)c3c2)c1Cl [Example 93] , please?
Output: 1 to 20 nM

Input: Any idea what its Kd is? The compound is C[C@@H](Oc1ccc2[nH]nc(-c3cnc(N4CC(C#N)C4)c(C#N)c3)c2c1)c1c(Cl)cncc1Cl [Example 348]
Output: 1 to 20 nM

Input: Entry C[C@@H](Oc1ccc2[nH]nc(-c3ccc(N4CCC[C@@H]4CO)nc3)c2c1)c1c(Cl)cncc1Cl [Example 236] has what Kd?
Output: 1 to 20 nM

Input: Please look up its Kd: Cc1ncc(Cl)c([C@@H](C)Oc2ccc3[nH]nc(-c4cnc(N5CC(CC(F)(F)F)C5)c(C#N)c4)c3c2)c1Cl [Example 295]
Output: 100 to 300 nM

Input: Query: Kd; subject: COc1cc2[nH]nc(-c3ccc(N4CC5(COC5)C4)nc3)c2cc1O[C@H](C)c1c(Cl)cnc(C)c1Cl [Example 211]
Output: 1 to 20 nM

Input: # input compound: Cc1cnnc(C)c1[C@@H](C)Oc1ccc2[nH]nc(-c3cnc(N4CCCC4)c(C#N)c3)c2c1 [Example 173] ; wanted: its Kd
Output: 20 to 100 nM

Input: Field request: Kd | item: COC(=O)N1CC2(C1)CN(c1ccc(-c3n[nH]c4ccc(O[C@@H](C)c5c(C)cnnc5C)cc34)cn1)C2 [Example 153]
Output: 1 to 20 nM

Input: Quick one: Kd of C[C@@H](Oc1ccc2[nH]nc(-c3ccc(N4CC5(C4)CS(=O)(=O)C5)nc3)c2c1)c1c(Cl)cncc1Cl [Example 112] ?
Output: 1 to 20 nM

Input: Dear colleague, I am looking for the recorded Kd of the following compound: C[C@@H](Oc1ccc2[nH]nc(-c3ccc(N4CC5(CCN5C)C4)nc3)c2c1)c1c(Cl)cncc1Cl [Example 96]
Output: 1 to 20 nM

Input: What does the record list as Kd for Cc1cc(-c2n[nH]c3ccc(O[C@H](C)c4c(Cl)cncc4Cl)cc23)cnc1N1CC2(C1)CN(S(C)(=O)=O)C2 [Example 248] ?
Output: 1 to 20 nM

Input: Item under review: Cc1cc(-c2n[nH]c3ccc(O[C@H](C)c4c(Cl)cnc(C)c4Cl)cc23)cnc1N1CC2(C1)CN(S(C)(=O)=O)C2 [Example 235] . Reported Kd?
Output: 1 to 20 nM

Input: Which Kd is reported for this compound? C[C@@H](Oc1ccc2[nH]nc(-c3ccc(N4CCNCC4=O)nc3)c2c1)c1c(Cl)cncc1Cl [Example 37]
Output: 1 to 20 nM

Input: I would be grateful if you could share the reported Kd for C[C@@H](Oc1ccc2[nH]nc(-c3cnc(N4CC5(CCNCC5)C4)nc3)c2c1)c1c(Cl)cncc1Cl [Example 133] .
Output: 1 to 20 nM

Input: Suppose we examine the compound Cc1ncc(Cl)c([C@@H](C)Oc2ccc3[nH]nc(-c4ccc(N5CCN6C(=O)CCC6C5)nc4)c3c2)c1Cl (stereo partly drawn) [Example 225] ; what Kd value has been reported?
Output: 1 to 20 nM

Input: # Kd lookup, item COC(=O)N1CC2(C1)CN(c1ccc(-c3n[nH]c4ccc(O[C@H](C)c5c(C)cnnc5C)cc34)cn1)C2 [Example 150]
Output: 1 to 20 nM

Input: Could you share which Kd value was measured for C[C@@H](Oc1ccc2[nH]nc(-c3cnc(N4CCC5(CCC(=O)N5)CC4)c(F)c3)c2c1)c1c(Cl)cncc1Cl [Example 42] ?
Output: 1 to 20 nM

Input: Given the compound Cc1ncc(Cl)c([C@@H](C)Oc2cc3c(-c4cnc(N5CC6(C5)CN(S(C)(=O)=O)C6)c(F)c4)n[nH]c3cc2Cl)c1Cl [Example 270] , what is its reported Kd?
Output: 1 to 20 nM

Input: Given the entry C[C@@H](Oc1ccc2[nH]nc(-c3cnc(N4CCC5(CCCN5)CC4)nc3)c2c1)c1c(Cl)cncc1Cl [Example 56] , report its measured Kd.
Output: 1 to 20 nM

Input: Value lookup for Kd; key = COc1cc2[nH]nc(-c3cnc(N4CC5(COC5)C4)c(C#N)c3)c2cc1O[C@H](C)c1c(C)cnnc1C [Example 218]
Output: 1 to 20 nM

Input: # lookup: Kd of C[C@@H](Oc1ccc2[nH]nc(-c3ccc(N4CC5(CCN(S(C)(=O)=O)C5)C4)nc3)c2c1)c1c(Cl)cncc1Cl [Example 115]
Output: 1 to 20 nM

Input: Which Kd value belongs to CNCc1cc(-c2n[nH]c3cc(OC)c(O[C@H](C)c4c(Cl)cncc4Cl)cc23)cnc1N1CC2(C1)CN(S(C)(=O)=O)C2 [Example 369] ?
Output: 20 to 100 nM

Input: Param item = CCC(=O)N1CCN(c2ccc(-c3n[nH]c4ccc(O[C@H](C)c5c(Cl)cncc5Cl)cc34)cn2)CC1 [Example 9] ; retrieve measured Kd.
Output: 1 to 20 nM

Input: What value of Kd has been reported for the following compound? C[C@@H](Oc1cc2c(-c3cnc(N4CC5(CCCS(=O)(=O)C5)C4)c(C#N)c3)n[nH]c2cc1F)c1c(Cl)cncc1Cl [Example 362]
Output: 1 to 20 nM

Input: Please look up its Kd: C[C@@H](Oc1cc2c(-c3cnc(N4CC5(C4)CN(S(C)(=O)=O)C5)c(C#N)c3)n[nH]c2cc1Cl)c1c(Cl)cncc1Cl [Example 359]
Output: > 300 nM

Input: So what does the record say about Kd for Cc1ncc(Cl)c([C@@H](C)Oc2cc3c(-c4cnc(N5CC6(C5)CN(S(C)(=O)=O)C6)c(F)c4)n[nH]c3cc2F)c1Cl [Example 269] ?
Output: 1 to 20 nM

Input: Need Kd of C[C@@H](Oc1ccc2[nH]nc(-c3ccc(N4CCCNC(=O)C4)nc3)c2c1)c1c(Cl)cncc1Cl [Example 35] , thanks.
Output: 1 to 20 nM

Input: Kd for C[C@@H](Oc1ccc2[nH]nc(-c3cnc(N4CCC4CN(C)C)c(C#N)c3)c2c1)c1c(Cl)cncc1Cl (stereo partly drawn) [Example 363] ?
Output: > 300 nM
